- measurementTarget: Catechol O-methyltransferase (Rattus norvegicus)
- Sequence (whole entry): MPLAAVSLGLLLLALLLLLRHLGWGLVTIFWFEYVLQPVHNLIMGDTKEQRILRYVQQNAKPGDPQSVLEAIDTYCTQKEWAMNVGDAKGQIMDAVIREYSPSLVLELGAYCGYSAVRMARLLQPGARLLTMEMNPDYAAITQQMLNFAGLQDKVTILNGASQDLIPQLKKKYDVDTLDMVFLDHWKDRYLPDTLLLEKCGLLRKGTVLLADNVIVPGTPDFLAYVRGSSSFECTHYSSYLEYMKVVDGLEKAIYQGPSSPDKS
- testSummary: Compound was evaluated for its ability to inactivate Catechol O-methyltransferase before dialysis
measuredQuantity: residual activity (c.p.m.)

Cc1c(O)c(O)c(C)c2[nH]ccc12 = 322
Oc1cc2cc[nH]c2cc1O = 282
NCCc1c[nH]c2cc(O)c(O)cc12 = 242

[a] Cc1c(O)c(O)cc2[nH]ccc12
[b] Cc1c(O)c(O)cc2cc[nH]c12
Between the two listed entries a and b , which has its residual activity at the higher number? Write the label of whichever entry you select.
a
(a: 396 c.p.m., b: 277 c.p.m.)
